biological target: T1, monomeric recombinant cynomologus monkey Notch3 extracellular domain (containing EGF like domains 1-12) … (cynomologus monkey); test: SPR BIAcore T100, antibody captured by anti-human IgG Fc, monomeric rcNotch3 analyte, 25 C
T1 construct: domain: EGF like domains 1-12; also called monomeric rcNotch3
Some binders, each annotated with its measured kon.
Numbers only; they are read as M⁻¹ s⁻¹.

Given the entry Hu4F11-32 (antibody, human IgG1, kappa, V domains shown, Humanized, human IgG1 kappa; Sh4F11 Hv3-23 heavy + Hu4F11 Kv2D-29 kappa) VH: EVQLLESGGGLVQPGGSLRLSCAASGFAFSSYDMSWVRQAPGKGLEWVSYISRGGGSTYYPDTVKGRFTISRDNSKNTLYLQMNSLRAEDTAVYYCGRHATTAYWYFDVWGQGTMVTVSS VL: DVVMTQTPLSLSVTPGQPASISCRSSQSLVHTNGNTYLHWYLQKPGQSPQLLIYKVSNRFSGVPDRFSGSGSGTDFTLKISRVEAEDVGVYFCSQSTHVPWTFGQGTKVEIKR , report its measured kon. 790000

Try Hu4F11-71 (antibody, human IgG1, kappa, V domains shown, Humanized, human IgG1 kappa; Hv3-23 A28T T62S heavy + Kv2D-29 N28H kappa) VH: EVQLLESGGGLVQPGGSLRLSCAASGFTFSSYDMSWVRQAPGKGLEWVSYISRGGGSTYYPDSVKGRFTISRDNSKNTLYLQMNSLRAEDTAVYYCGRHATTAYWYFDVWGQGTMVTVSS VL: DVVMTQTPLSLSVTPGQPASISCRSSQSLVHTHGNTYLHWYLQKPGQSPQLLIYKVSNRFSGVPDRFSGSGSGTDFTLKISRVEAEDVGVYFCSQSTHVPWTFGQGTKVEIKR next. 1.5e+06
